Cited source for all entries: patent US20250353873A1

tested on: human APOE RNA; assay: Dose-dependent inhibition of human APOE RNA in HepG2 cells, electroporation, 50,000 cells per well, RT-PCR normalized to GAPDH (Example 4, Tables 8-10); assay type: cell-based; settings: 33 nM; HepG2, electroporation, 16-hour treatment
Strand notation (5' to 3'): a small letter for the sugar, then the base; units joined by * are phosphorothioate-linked, units joined directly phosphodiester-linked; [ ] holds rarer units or linkages, { } end groups; capitals alone tell only the bases. [ms] = mesyl phosphoramidate linkage; e = 2'-O-(2-methoxyethyl) (MOE); k = constrained ethyl (cEt); [5mC] = 5-methylcytosine; d = 2'-deoxy (DNA)
Measured APOE RNA (% UTC) of individual entries
# value in % UTC; strip the unit string

{"columns": ["SUBSTANCE", "TGT", "APOE RNA (% UTC)"],
 "data": [
  ["1766537 (eT*eTeGeGeT*dG[ms]dA[ms]dA[ms]dT*d[5mC]*dT*dT*dT[ms]dA*dT*kTkAeA*eA*e[5mC]; antisense) [Compound 1766537]", "human APOE RNA", 108]
]}

Lab note: substance 1757556: mixed MOE/cEt gapmer TTGGTGAATCTTTATTAA, sugar eeeeeddddddddekkee, linkages soossssssssssooss (eT*eTeGeG*eT*dG*dA*dA*dT*d[5mC]*dT*dT*dT*eAkTkT*eA*eA) [compound 1757556] tested on human APOE RNA; recorded APOE RNA (% UTC) was 98

Lab note: substance 1757564: mixed MOE/cEt gapmer TTGGTGAATCTTTATTAA, sugar eeeekddddddddkeeke, linkages soossssssssssooss (eT*eTeGeG*kT*dG*dA*dA*dT*d[5mC]*dT*dT*dT*kAeTeT*kA*eA) [compound 1757564] tested on human APOE RNA; recorded APOE RNA (% UTC) was 92

Lab note: substance 1757541: mixed MOE/cEt gapmer TTGGTGAATCTTTATTAA, sugar eeeekddddddddeeeee, linkages soossssssssssooss (eT*eTeGeG*kT*dG*dA*dA*dT*d[5mC]*dT*dT*dT*eAeTeT*eA*eA) [compound 1757541] tested on human APOE RNA; recorded APOE RNA (% UTC) was 100

====

system: human APOE RNA; test: Dose-dependent inhibition of human APOE RNA in HepG2 cells, electroporation, 50,000 cells per well, RT-PCR normalized to GAPDH (Example 4, Tables 8-10); assay type: cell-based; settings: HepG2 cells, electroporation, 24-hour treatment, 82 nM, Table 8
Strand notation (5' to 3'): a small letter for the sugar, then the base; units joined by * are phosphorothioate-linked, units joined directly phosphodiester-linked; [ ] holds rarer units or linkages, { } end groups; capitals alone tell only the bases. [ms] = mesyl phosphoramidate linkage; e = 2'-O-(2-methoxyethyl) (MOE); k = constrained ethyl (cEt); [5mC] = 5-methylcytosine; d = 2'-deoxy (DNA)
Measured APOE RNA (% UTC) 82 nM of individual entries
# value in % UTC; strip the unit string

{"columns": ["SUBSTANCE", "APOE RNA (% UTC) 82 nM"],
 "data": [
  ["1778154: modified oligonucleotide complementary to human APOE RNA (e[5mC]*eT*eTeGeGeT*dG[ms]dA[ms]dA*dT*d[5mC]*dT*dT*dT*dA*dT*kTkAeA*eA; antisense) [compound 1778154]", 98],
  ["1785617: modified oligonucleotide complementary to human APOE RNA (k[5mC]*dT[ms]dT[ms]kG*dG[ms]kT*dG[ms]dA[ms]dA[ms]dT[ms]d[5mC]*dT*dT*dT*dA*dT*kT*kA*dA[ms]kA; antisense) [compound 1785617]", 83],
  ["^mCksTksTksGdzGdzTdzGdzAdzAdzTds^mCdsTdsTdsTdsAdsTdsTksAksAdzAk (antisense k[5mC]*kT*kT*dG[ms]dG[ms]dT[ms]dG[ms]dA[ms]dA[ms]dT*d[5mC]*dT*dT*dT*dA*dT*kT*kA*dA[ms]kA) [Compound No. 1785602]", 64]
]}

Entry 1785604: modified oligonucleotide complementary to human APOE RNA (k[5mC]*dT[ms]dT[ms]kG*dG[ms]kT*dG[ms]dA[ms]dA*dT*d[5mC]*dT*dT*dT*dA*dT*kT*kA*dA[ms]kA; antisense) [compound 1785604] ; APOE RNA (% UTC) 82 nM = 86

====

tested on: human APOE RNA; assay: Dose-dependent inhibition of human APOE RNA in HepG2 cells, electroporation, 50,000 cells per well, RT-PCR normalized to GAPDH (Example 4, Tables 8-10); format: cell-based; settings: 205 nM; HepG2, electroporation, 24-hour treatment
Strand notation (5' to 3'): a small letter for the sugar, then the base; units joined by * are phosphorothioate-linked, units joined directly phosphodiester-linked; [ ] holds rarer units or linkages, { } end groups; capitals alone tell only the bases. [ms] = mesyl phosphoramidate linkage; k = constrained ethyl (cEt); [5mC] = 5-methylcytosine; d = 2'-deoxy (DNA)
Tag: fulfilled if measured APOE RNA (% UTC) is not below 70 % UTC, not fulfilled if it is.

// below: answered substances
{"columns": ["SUBSTANCE", "TGT", "CLASS"],
 "data": [
  ["1746795 (k[5mC]*kT*dT[ms]kG*dG[ms]dT[ms]dG[ms]dA[ms]dA[ms]dT*d[5mC]*dT*dT*dT*dA[ms]dT*kT*dA[ms]kA*kA; antisense) [Compound 1746795]", "human APOE RNA", "fulfilled"],
  ["1747052 (k[5mC]*dT[ms]kT*kG*dG[ms]kT*dG[ms]dA[ms]dA[ms]dT*d[5mC]*dT*dT*dT*dA[ms]dT*kT*dA[ms]dA[ms]kA; antisense) [Compound 1747052]", "human APOE RNA", "fulfilled"],
  ["1746793 (k[5mC]*dT[ms]dT[ms]dG[ms]kG*kT*dG[ms]dA[ms]dA[ms]dT*d[5mC]*dT*dT*dT*dA[ms]dT*kT*kA*dA[ms]kA; antisense) [Compound 1746793]", "human APOE RNA", "not fulfilled"]
]}

Next, consider the following substance.
Check the entry 1746799 (k[5mC]*dT[ms]kT*dG[ms]kG*dT[ms]dG[ms]dA[ms]dA[ms]dT*d[5mC]*dT*dT*dT*dA[ms]dT*kT*dA[ms]kA*kA; antisense) [Compound 1746799] : does APOE RNA (% UTC) equal or exceed 70 % UTC?
fulfilled

====

system: human APOE RNA; assay: Dose-dependent inhibition of human APOE RNA in HepG2 cells, electroporation, 50,000 cells per well, RT-PCR normalized to GAPDH (Example 4, Tables 8-10); format: cell-based; settings: HepG2, electroporation, 16-hour treatment
Strand notation (5' to 3'): a small letter for the sugar, then the base; units joined by * are phosphorothioate-linked, units joined directly phosphodiester-linked; [ ] holds rarer units or linkages, { } end groups; capitals alone tell only the bases. e = 2'-O-(2-methoxyethyl) (MOE); k = constrained ethyl (cEt); [5mC] = 5-methylcytosine; d = 2'-deoxy (DNA)
Measured log10(IC50) of individual entries
Hey, these are logged values: log10 of IC50, nM being the unit before logging.

Look over these answered cases.
{"columns": ["SUBSTANCE", "EXPERIMENTAL ENDPOINT", "ENDPOINT VALUE"],
 "data": [
  ["1757562: mixed MOE/cEt gapmer TTGGTGAATCTTTATTAA, sugar eeeekddddddddkkeee, linkages soossssssssssooss (eT*eTeGeG*kT*dG*dA*dA*dT*d[5mC]*dT*dT*dT*kAkTeT*eA*eA) [compound 1757562]", "log10(IC50)", 2.76],
  ["1757568 (eA*e[5mC]eTeTeG*dG*dT*dG*dA*dA*dT*d[5mC]*dT*dT*dT*kAkTeT*eA*eA; antisense) [Compound 1757568]", "log10(IC50)", 3.14]
]}

Entry 1757557: mixed MOE/cEt gapmer TTGGTGAATCTTTATTAA, sugar eeeeeddddddddeekke, linkages soossssssssssooss (eT*eTeGeG*eT*dG*dA*dA*dT*d[5mC]*dT*dT*dT*eAeTkT*kA*eA) [compound 1757557] ; log10(IC50) = 3.67

Entry 1757570 (eA*e[5mC]eTeTkG*dG*dT*dG*dA*dA*dT*d[5mC]*dT*dT*dT*kAkTeT*eA*eA; antisense) [Compound 1757570] ; log10(IC50) = 2.76

Entry 1757569 (eA*e[5mC]eTkTkG*dG*dT*dG*dA*dA*dT*d[5mC]*dT*dT*dT*kAeTeT*eA*eA; antisense) [Compound 1757569] ; log10(IC50) = 2.59

====

Test system: human APOE RNA
Experiment: Activity in APOE C57BL/6NTac-Apoeem7250 knock-in mice, single ICV bolus, 16 weeks (Example 12)
Assay type: in vivo
Details: cortex; single ICV bolus 300 μg; 16 weeks post treatment; normalized to mouse Ppia
Description: Modified oligonucleotides described above were tested in the APOE C57BL/6NTac-Apoeem7250 knock-in mouse model described above. APOE C57BL/6NTac-Apoeem7250 knock-in mice were divided into groups of 3-4 mice each. […] Sixteen weeks post treatment, mice were sacrificed and RNA was extracted from cortical brain tissue and spinal cord for quantitative real-time RT-PCR analysis of RNA expression of APOE using primer probe set RTS3073 (described herein above). […]
Strand notation (5' to 3'): a small letter for the sugar, then the base; units joined by * are phosphorothioate-linked, units joined directly phosphodiester-linked; [ ] holds rarer units or linkages, { } end groups; capitals alone tell only the bases. [ms] = mesyl phosphoramidate linkage; e = 2'-O-(2-methoxyethyl) (MOE); k = constrained ethyl (cEt); [5mC] = 5-methylcytosine; d = 2'-deoxy (DNA)
Please use class 1 for APOE RNA (% control) Cortex under 90 % control and class 0 for everything else, ties included.

// below: answered substances
{"columns": ["SUBSTANCE", "CLASS"],
 "data": [
  ["1736493 (e[5mC]*eTeT*eG*eG*eT*dG[ms]dA[ms]dA[ms]dT*d[5mC]*dT*dT*dT*dA[ms]dT*kT*kA*eA*eA; antisense) [Compound 1736493]", "class 1"],
  ["1693060: 5-10-5 MOE gapmer TTGGTGAATCTTTATTAAAC, linkages ssssszzzsssszzsosss (antisense eT*eT*eG*eG*eT*dG[ms]dA[ms]dA[ms]dT*d[5mC]*dT*dT*dT[ms]dA[ms]dT*eTeA*eA*eA*e[5mC]) [compound 1693060]", "class 0"]
]}

Lab note: APOE RNA (% control) Cortex threshold 90 % control. Does this substance come in strictly under it? 1736531 (e[5mC]*eT*eT*eG*eG*kTdG[ms]dA[ms]dA[ms]dT*d[5mC]*dT*dT*dT*dA[ms]dT*eT*eA*eA*eA; antisense) [Compound 1736531]
class 1

Lab note: APOE RNA (% control) Cortex threshold 90 % control. Does this substance come in strictly under it? 1693110: 6-10-4 MOE gapmer CTTGGTGAATCTTTATTAAA, linkages sssssszzzsssszzssss (e[5mC]*eT*eT*eG*eG*eT*dG[ms]dA[ms]dA[ms]dT*d[5mC]*dT*dT*dT[ms]dA[ms]dT*eT*eA*eA*eA) [compound 1693110]
class 0

Lab note: APOE RNA (% control) Cortex threshold 90 % control. Does this substance come in strictly under it? 1693075: 5-10-5 MOE gapmer ACTTGGTGAATCTTTATTAA, linkages ssssssszzzzzsssssss (eA*e[5mC]*eT*eT*eG*dG*dT*dG[ms]dA[ms]dA[ms]dT[ms]d[5mC][ms]dT*dT*dT*eA*eT*eT*eA*eA) [compound 1693075]
class 1

Lab note: APOE RNA (% control) Cortex threshold 90 % control. Does this substance come in strictly under it? 1778129: modified oligonucleotide complementary to human APOE RNA (eA*e[5mC]eTeTeG*kG*dT*dG[ms]dA[ms]dA*dT*d[5mC]*dT*dT*dT*dA[ms]kT*kT*eA*eA; antisense) [compound 1778129]
class 1

Lab note: APOE RNA (% control) Cortex threshold 90 % control. Does this substance come in strictly under it? 1693039: 5-10-5 MOE gapmer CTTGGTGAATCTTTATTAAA, linkages sssosszzzssssssooss (antisense e[5mC]*eT*eT*eGeG*dT*dG[ms]dA[ms]dA[ms]dT*d[5mC]*dT*dT*dT*dA*eTeTeA*eA*eA) [compound 1693039]
class 0
